Recorded pKi, one value per entry.
Biological target: 5-HT2AR (Homo sapiens, UniProt P28223)
Construct: expressed in transfected cells; host or cells: Flp-In 293 T-Rex (tetracycline inducible)
Sequence (P28223 whole entry): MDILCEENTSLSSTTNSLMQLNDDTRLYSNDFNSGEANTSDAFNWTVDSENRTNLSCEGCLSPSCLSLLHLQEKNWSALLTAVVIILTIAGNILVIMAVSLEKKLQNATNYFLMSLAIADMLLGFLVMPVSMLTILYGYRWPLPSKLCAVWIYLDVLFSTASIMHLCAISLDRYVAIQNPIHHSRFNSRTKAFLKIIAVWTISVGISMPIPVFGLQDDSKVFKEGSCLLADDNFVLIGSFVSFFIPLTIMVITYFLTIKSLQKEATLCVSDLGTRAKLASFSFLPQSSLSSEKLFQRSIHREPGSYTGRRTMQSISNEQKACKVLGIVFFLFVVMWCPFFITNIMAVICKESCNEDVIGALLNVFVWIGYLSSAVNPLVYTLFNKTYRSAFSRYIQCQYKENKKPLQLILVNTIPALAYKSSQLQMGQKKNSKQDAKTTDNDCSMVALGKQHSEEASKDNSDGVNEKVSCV
Assay: 5-HT2AR binding affinity (Ki), Table 8
Conditions: read-out: 5-HT2AR Ki
Bear in mind: pKi is minus log10 of a mol/L concentration; give just that figure.

Record excerpt, results attached:
[[record]]
molecule = "CCCCN1CC(c2cncc(Cl)c2)=C[C@H](C)C1"
parameter_measured = "pKi"
observed_value = 5.34

[[record]]
molecule = "CCc1cncn1CCN1CC(c2cccn2C)=CC(C)C1 (racemic)"
parameter_measured = "pKi"
observed_value = 5.21

[[record]]
molecule = "CCCCCN1CC(c2cncc(Cl)c2)=C[C@H](C)C1"
parameter_measured = "pKi"
observed_value = 5.15


get_value(item= "C[C@@H]1C=C(c2c[nH]c3ncccc23)CN(CCCc2cnn(C)c2)C1" , readout=pKi) returns 6.17

----------
Target: 5-HT2BR (Homo sapiens, UniProt P41595)
Construct: expressed in transfected cells; host or cells: Flp-In 293 T-Rex (tetracycline inducible)
Sequence (P41595 whole entry): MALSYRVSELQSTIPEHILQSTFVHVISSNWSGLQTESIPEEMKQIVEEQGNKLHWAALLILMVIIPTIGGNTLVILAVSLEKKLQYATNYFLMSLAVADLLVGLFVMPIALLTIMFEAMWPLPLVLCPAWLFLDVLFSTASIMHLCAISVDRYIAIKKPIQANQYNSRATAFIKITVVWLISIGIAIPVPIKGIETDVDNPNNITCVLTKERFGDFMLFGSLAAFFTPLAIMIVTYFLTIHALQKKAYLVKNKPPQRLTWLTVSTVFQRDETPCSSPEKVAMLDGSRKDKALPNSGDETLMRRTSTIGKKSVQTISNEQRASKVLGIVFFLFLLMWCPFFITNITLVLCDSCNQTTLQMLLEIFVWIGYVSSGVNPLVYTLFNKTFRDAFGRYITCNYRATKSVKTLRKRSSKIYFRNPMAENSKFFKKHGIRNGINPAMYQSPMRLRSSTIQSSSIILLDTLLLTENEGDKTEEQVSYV
Assay: 5-HT2BR binding affinity (Ki), Table 8
Conditions: read-out: 5-HT2BR Ki
pKi: −log10 of the molar value.
Quick rule for you: pKi at 6 or higher means satisfied, lower means not satisfied.

Recorded results for 6 molecules are shown here.
[[record]]
molecule = "c1cnc2[nH]cc(C3CCCNC3)c2c1 (single isomer, unassigned) [compound 50]"
assigned_class = "satisfied"

[[record]]
molecule = "CCCCN1CC(c2cncc(C)c2)=C[C@H](C)C1 (stereo in doubt)"
assigned_class = "satisfied"

[[record]]
molecule = "CCCCN1CC(c2c[nH]c3ncccc23)=C[C@H](C)C1"
assigned_class = "not satisfied"

[[record]]
molecule = "CCCCCN1CC(c2cncc(Cl)c2)=C[C@@H](C)C1"
assigned_class = "satisfied"

[[record]]
molecule = "C[C@@H]1C=C(c2c[nH]c3ncccc23)CN(CC2CC2)C1"
assigned_class = "not satisfied"

[[record]]
molecule = "c1cnc2[nH]cc(C3CCCNC3)c2c1 (single isomer, unassigned) [compound 51]"
assigned_class = "satisfied"


Assess whether reported pKi for "C[C@H]1C=C(c2c[nH]c3ncccc23)CN(Cc2cnco2)C1" sits at 6 or higher.
not satisfied

----------
Listed here: items and their measured Ki.
Biological target: 5-HT2BR (Homo sapiens, UniProt P41595)
Construct: expressed in transfected cells; host or cells: Flp-In 293 T-Rex (tetracycline inducible)
Test: 5-HT2BR binding affinity (Ki), Table 8
Conditions: bracketed value below Ki; read-out: 5-HT2BR pKi ± S.E.M (converted)
Give the value in nM but do not write nM after it.

Before answering, review these 3 worked examples.
[[record]]
compound = "CCCCN1CC(c2cncc(C)c2)=C[C@H](C)C1 (stereo in doubt)"
observed_value = 30.9

[[record]]
compound = "CCCCN1CC(c2cncc(Cl)c2)=C[C@@H](C)C1"
observed_value = 372

[[record]]
compound = "Cc1cncc(C2=C[C@@H](C)CN(CC3(O)COC3)C2)c1"
observed_value = 3240


Here's the next entry for you.
Input "CCCCCN1CC(c2cncc(Cl)c2)=C[C@H](C)C1" . Output Ki: 5.01

----------
Target: 5-HT2AR (Homo sapiens, UniProt P28223)
Construct: expressed in transfected cells; host or cells: Flp-In 293 T-Rex (tetracycline inducible)
Test: 5-HT2AR binding affinity (Ki), Table 8
Settings: bracketed value below Ki; read-out: 5-HT2AR pKi ± S.E.M (converted)
So basically, if Ki comes in under 700 nM it's class 1, and if it's 700 nM or more it's class 0.

Record excerpt, results attached:
[[record]]
compound = "Cc1ncc(CCN2CC(c3c[nH]c4ncccc34)=C[C@H](C)C2)cn1"
assigned_class = "class 1"

[[record]]
compound = "Cc1ncc(CCN2CC(c3c[nH]c4ncccc34)=C[C@@H](C)C2)cn1"
assigned_class = "class 1"

[[record]]
compound = "C[C@@H]1C=C(c2c[nH]c3ncccc23)CN(CC2CC2)C1"
assigned_class = "class 0"


Does the reported Ki of the following compound sit strictly below 700 nM? "C1=C(c2c[nH]c3ncccc23)CNCC1"
class 1

Input "CCCN1CC(c2c[nH]c3ncccc23)=C[C@@H](C)C1" ; condition: Ki strictly below 700 nM. Does it hold?
class 0

Lab log: compare recorded Ki with 700 nM; is it strictly lower for "C[C@@H]1C=C(c2c[nH]c3ncccc23)CN(CCCc2cnn(C)c2)C1" ?
class 1

Record C[C@H]1C=C(c2cncc(Cl)c2)CN(C)C1 (stereo in doubt) : is its Ki strictly below 700 nM?
class 0
